Measured values drawn from patent US12227500B2 for this set.

# remaining activity at 0.1 µM values compiled below
- ASSAYED SYSTEM: panel of 60 human kinases (Homo sapiens, UniProt Q00526)
- Construct: purchased Reaction Biology Corp
- Sequence (Q00526 whole entry): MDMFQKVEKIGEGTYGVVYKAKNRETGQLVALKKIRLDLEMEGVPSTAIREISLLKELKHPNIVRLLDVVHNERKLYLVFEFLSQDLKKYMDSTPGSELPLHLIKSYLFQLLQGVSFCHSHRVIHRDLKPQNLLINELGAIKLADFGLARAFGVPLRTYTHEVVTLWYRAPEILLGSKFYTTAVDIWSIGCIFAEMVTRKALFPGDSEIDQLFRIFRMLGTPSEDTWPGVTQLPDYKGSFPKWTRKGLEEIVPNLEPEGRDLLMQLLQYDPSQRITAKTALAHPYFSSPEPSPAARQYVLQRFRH
- TEST DETAILS: Radiolabeled ATP kinase assay, panel of 60 kinases (Table S5)
- Assay type: biochemical
- TEST CONTEXT: CDK3/cyclin E; 0.1 μM; 10 μM ATP; read-out: % Enzyme Activity (relative to DSMO controls)
Write it as a number; the unit % goes unstated.

[
  {
    "COMPOUND": "Cc1nn(C)c(C)c1-c1c[nH]c2ncc(-c3ccc(CN4CCN(C)CC4)cc3)cc12 [Compound 7ai]",
    "remaining activity at 0.1 µM [%]": 96
  },
  {
    "COMPOUND": "CN1CCN(Cc2ccc(-c3cnc4[nH]cc(-c5cccc(Cl)c5)c4c3)cc2)CC1 [Compound 7ad]",
    "remaining activity at 0.1 µM [%]": 95.5
  },
  {
    "COMPOUND": "CN1CCN(Cc2ccc(-c3cnc4[nH]cc(-c5ccc6[nH]ccc6c5)c4c3)cc2)CC1 [Compound 1, reference compound]",
    "remaining activity at 0.1 µM [%]": 89.1
  }
]

Write down remaining activity at 0.1 µM measured for item CN1CCN(Cc2ccc(-c3cnc4[nH]cc(-c5ccc6c(c5)OCCO6)c4c3)cc2)CC1 [Compound 7d]
76.7

###

# remaining activity at 0.1 µM values compiled below
- ASSAYED SYSTEM: panel of 60 human kinases (Homo sapiens, UniProt Q92918)
- Construct: purchased Reaction Biology Corp
- Sequence (Q92918 whole entry): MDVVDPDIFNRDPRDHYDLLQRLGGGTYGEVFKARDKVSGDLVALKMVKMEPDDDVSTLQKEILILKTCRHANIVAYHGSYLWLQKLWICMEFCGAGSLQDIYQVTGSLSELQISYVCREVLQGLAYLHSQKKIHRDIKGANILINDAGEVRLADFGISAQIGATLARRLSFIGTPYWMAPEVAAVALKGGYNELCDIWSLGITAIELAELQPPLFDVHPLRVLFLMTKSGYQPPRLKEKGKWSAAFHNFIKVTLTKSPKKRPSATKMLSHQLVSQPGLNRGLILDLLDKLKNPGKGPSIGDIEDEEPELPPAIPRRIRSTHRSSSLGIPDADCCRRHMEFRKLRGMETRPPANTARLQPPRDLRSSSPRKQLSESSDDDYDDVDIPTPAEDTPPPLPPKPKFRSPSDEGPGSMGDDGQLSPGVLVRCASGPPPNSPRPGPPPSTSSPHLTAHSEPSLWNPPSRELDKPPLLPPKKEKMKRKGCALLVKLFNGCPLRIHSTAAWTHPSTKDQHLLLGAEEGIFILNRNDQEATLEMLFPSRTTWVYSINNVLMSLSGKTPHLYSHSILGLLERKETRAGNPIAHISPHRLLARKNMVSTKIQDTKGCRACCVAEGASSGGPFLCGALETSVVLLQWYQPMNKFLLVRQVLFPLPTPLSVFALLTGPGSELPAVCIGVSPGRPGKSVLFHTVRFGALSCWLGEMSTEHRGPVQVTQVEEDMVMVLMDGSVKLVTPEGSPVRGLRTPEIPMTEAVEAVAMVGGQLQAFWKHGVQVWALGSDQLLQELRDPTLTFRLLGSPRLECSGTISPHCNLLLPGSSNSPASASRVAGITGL
- TEST DETAILS: Radiolabeled ATP kinase assay, panel of 60 kinases (Table S5)
- Format: biochemical
- TEST CONTEXT: HPK1/MAP4K1; 0.1 μM; 10 μM ATP; read-out: % Enzyme Activity (relative to DSMO controls)

[
  {
    "ENTRY SMILES": "CN1CCN(Cc2ccc(-c3cnc4[nH]cc(-c5ccncc5)c4c3)cc2)CC1",
    "remaining activity at 0.1 µM": "57.7%"
  },
  {
    "ENTRY SMILES": "Cc1nn(C)c(C)c1-c1c[nH]c2ncc(-c3ccc(CN4CCN(C)CC4)cc3)cc12",
    "remaining activity at 0.1 µM": "67.8%"
  },
  {
    "ENTRY SMILES": "COc1ccccc1-c1c[nH]c2ncc(-c3ccc(CN4CCN(C)CC4)cc3)cc12",
    "remaining activity at 0.1 µM": "55.6%"
  }
]

Now examine the next entry.
Write down remaining activity at 0.1 µM measured for item "CN1CCN(Cc2ccc(-c3cnc4[nH]cc(-c5ccc6c(c5)OCCO6)c4c3)cc2)CC1"
11.3%

###

- ASSAYED SYSTEM: panel of 60 human kinases (Homo sapiens)
- Construct: purchased Reaction Biology Corp
- TEST DETAILS: Radiolabeled ATP kinase assay, panel of 60 kinases (Table S5)
- Format: biochemical
- TEST CONTEXT: DYRK2; 0.1 μM; 10 μM ATP; read-out: % Enzyme Activity (relative to DSMO controls)
# remaining activity at 0.1 µM values compiled below
Write it as a number; the unit % goes unstated.

Examples with their reported remaining activity at 0.1 µM follow.
[
  {
    "ENTRY SMILES": "CN1CCN(Cc2ccc(-c3cnc4[nH]cc(-c5cnn(Cc6ccccc6)c5)c4c3)cc2)CC1",
    "UNIT OF MEASURE": "%",
    "remaining activity at 0.1 µM": 59.3
  },
  {
    "ENTRY SMILES": "CN1CCN(Cc2ccc(-c3cnc4[nH]cc(-c5ccncc5)c4c3)cc2)CC1",
    "UNIT OF MEASURE": "%",
    "remaining activity at 0.1 µM": 63.6
  }
]

Write down remaining activity at 0.1 µM measured for item "COc1ccccc1-c1c[nH]c2ncc(-c3ccc(CN4CCN(C)CC4)cc3)cc12"
96.8

Write down remaining activity at 0.1 µM measured for item "CN1CCN(Cc2ccc(-c3cnc4[nH]cc(-c5cccc(Cl)c5)c4c3)cc2)CC1"
69.7

###

- ASSAYED SYSTEM: panel of 60 human kinases (Homo sapiens)
- Construct: purchased Reaction Biology Corp
- TEST DETAILS: Radiolabeled ATP kinase assay, panel of 60 kinases (Table S5)
- Assay type: biochemical
- TEST CONTEXT: CDK18/cyclin Y (PCTK3); 0.1 μM; 10 μM ATP; read-out: % Enzyme Activity (relative to DSMO controls)
- Description: To better understand the biologically relevant targets of compound 1 and its analogs, a second round of cell-free kinase assays was performed. In this expanded assay, we selected ten analogs ranging from moderately to very strongly protective in the CPA assay. These analogs were evaluated for their ability to inhibit a selection of 60 kinases at 0.1 μM and 0.5 μM. […] RNAseq data were used to confirm the expression of each kinase in ES MNs (see Example 12). […]
# remaining activity at 0.1 µM values compiled below
Your answer should be a number followed by the unit of measure.

Examples with their reported remaining activity at 0.1 µM follow.
[
  {
    "COMPOUND": "Cc1nn(C)c(C)c1-c1c[nH]c2ncc(-c3ccc(CN4CCN(C)CC4)cc3)cc12 [Compound 7ai]",
    "ASSAYED SYSTEM": "panel of 60 human kinases (Homo sapiens)",
    "remaining activity at 0.1 µM": "100%"
  },
  {
    "COMPOUND": "CN1CCN(Cc2ccc(-c3cnc4[nH]cc(-c5ccoc5)c4c3)cc2)CC1 [Compound 7w]",
    "ASSAYED SYSTEM": "panel of 60 human kinases (Homo sapiens)",
    "remaining activity at 0.1 µM": "94.5%"
  }
]

Now examine the next entry.
Write down remaining activity at 0.1 µM measured for item CN1CCN(Cc2ccc(-c3cnc4[nH]cc(-c5ccccc5Cl)c4c3)cc2)CC1 [Compound 7as]
95.5%

###

- ASSAYED SYSTEM: MLK1/MAP3K9 (Homo sapiens, UniProt P80192)
- Construct: purchased Reaction Biology Corp
- Sequence (P80192 whole entry): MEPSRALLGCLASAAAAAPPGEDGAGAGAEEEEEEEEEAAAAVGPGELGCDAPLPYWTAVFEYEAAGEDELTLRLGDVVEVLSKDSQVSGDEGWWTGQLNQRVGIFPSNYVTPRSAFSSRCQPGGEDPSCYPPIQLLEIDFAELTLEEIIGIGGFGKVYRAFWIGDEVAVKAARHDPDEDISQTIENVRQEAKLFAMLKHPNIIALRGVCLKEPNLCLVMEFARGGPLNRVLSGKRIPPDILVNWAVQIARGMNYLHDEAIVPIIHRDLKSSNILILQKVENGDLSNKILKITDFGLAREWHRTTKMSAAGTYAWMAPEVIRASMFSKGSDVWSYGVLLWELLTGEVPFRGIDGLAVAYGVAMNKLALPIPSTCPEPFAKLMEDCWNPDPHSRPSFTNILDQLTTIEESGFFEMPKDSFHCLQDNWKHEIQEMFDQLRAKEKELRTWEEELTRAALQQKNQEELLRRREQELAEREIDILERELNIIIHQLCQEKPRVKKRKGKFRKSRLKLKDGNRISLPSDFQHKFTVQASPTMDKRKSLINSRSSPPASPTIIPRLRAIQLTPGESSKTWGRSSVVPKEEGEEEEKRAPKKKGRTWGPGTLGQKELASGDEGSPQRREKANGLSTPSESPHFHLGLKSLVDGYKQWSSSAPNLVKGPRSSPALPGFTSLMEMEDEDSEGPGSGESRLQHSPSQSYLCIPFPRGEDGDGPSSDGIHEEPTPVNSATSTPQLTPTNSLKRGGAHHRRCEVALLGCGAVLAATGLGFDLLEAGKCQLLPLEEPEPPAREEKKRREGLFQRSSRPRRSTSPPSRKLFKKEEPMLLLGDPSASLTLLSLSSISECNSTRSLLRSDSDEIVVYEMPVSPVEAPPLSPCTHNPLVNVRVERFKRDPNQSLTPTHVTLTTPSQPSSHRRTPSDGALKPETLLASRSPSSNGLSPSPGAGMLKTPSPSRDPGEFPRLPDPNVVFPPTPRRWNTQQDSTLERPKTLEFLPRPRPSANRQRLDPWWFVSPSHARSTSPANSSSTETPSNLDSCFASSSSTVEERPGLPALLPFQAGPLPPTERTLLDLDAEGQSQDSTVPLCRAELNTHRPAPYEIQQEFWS
- TEST DETAILS: Radiolabeled ATP kinase assay (Reaction Biology Corp.), MLK1
- Type: biochemical
- TEST CONTEXT: [Cmpd] 0.1 μM; 10 μM ATP; read-out: % Enzyme Activity Remaining (relative to DMSO controls), MLK1/MAP3K9, Data 2
REPORTED ENDPOINT: remaining activity at 0.1 µM (%)
Write it as a number; the unit % goes unstated.

Examples with their reported remaining activity at 0.1 µM follow.
[
  {
    "ENTRY SMILES": "Cc1nn(C)c(C)c1-c1c[nH]c2ncc(-c3ccc(CN4CCN(C)CC4)cc3)cc12",
    "UNIT OF MEASURE": "%",
    "remaining activity at 0.1 µM": 90.5
  },
  {
    "ENTRY SMILES": "Cc1ccc(S(=O)(=O)n2cc(-c3ccc4[nH]ccc4c3)c3cc(-c4ccc(C=O)cc4)cnc32)cc1",
    "UNIT OF MEASURE": "%",
    "remaining activity at 0.1 µM": 95.5
  }
]

Write down remaining activity at 0.1 µM measured for item "CN1CCN(Cc2ccc(-c3cnc4[nH]cc(-c5ccc(CN6CCOCC6)s5)c4c3)cc2)CC1"
80

Write down remaining activity at 0.1 µM measured for item "CN1CCN(Cc2ccc(-c3cnc4[nH]cc(-c5ccc6c(c5)OCCO6)c4c3)cc2)CC1"
23.6

###

- ASSAYED SYSTEM: panel of 60 human kinases (Homo sapiens)
- Construct: purchased Reaction Biology Corp
- TEST DETAILS: Radiolabeled ATP kinase assay, panel of 60 kinases (Table S5)
- Type: biochemical
- TEST CONTEXT: TNIK; 0.1 μM; 10 μM ATP; read-out: % Enzyme Activity (relative to DSMO controls)
# remaining activity at 0.1 µM values compiled below
Write it as a number; the unit % goes unstated.

[
  {
    "MOLECULE": "Cc1nn(C)c(C)c1-c1c[nH]c2ncc(-c3ccc(CN4CCN(C)CC4)cc3)cc12",
    "REPORTED ENDPOINT": "remaining activity at 0.1 µM",
    "MEAS VALUE": 1.35
  },
  {
    "MOLECULE": "CN1CCN(Cc2ccc(-c3cnc4[nH]cc(-c5ccccc5Cl)c4c3)cc2)CC1",
    "REPORTED ENDPOINT": "remaining activity at 0.1 µM",
    "MEAS VALUE": 0.51
  },
  {
    "MOLECULE": "COc1ccccc1-c1c[nH]c2ncc(-c3ccc(CN4CCN(C)CC4)cc3)cc12",
    "REPORTED ENDPOINT": "remaining activity at 0.1 µM",
    "MEAS VALUE": 2.2
  }
]

Write down remaining activity at 0.1 µM measured for item CN1CCN(Cc2ccc(-c3cnc4[nH]cc(-c5ccc6[nH]ccc6c5)c4c3)cc2)CC1 [Compound 1, reference compound]
3

Write down remaining activity at 0.1 µM measured for item "CN1CCN(Cc2ccc(-c3cnc4[nH]cc(-c5cnn(Cc6ccccc6)c5)c4c3)cc2)CC1"
0.96

Write down remaining activity at 0.1 µM measured for item "CN1CCN(Cc2ccc(-c3cnc4[nH]cc(-c5ccoc5)c4c3)cc2)CC1"
0.45

Write down remaining activity at 0.1 µM measured for item "CN1CCN(Cc2ccc(-c3cnc4[nH]cc(-c5cccc(Cl)c5)c4c3)cc2)CC1"
0.68

Write down remaining activity at 0.1 µM measured for item "CN1CCN(Cc2ccc(-c3cnc4[nH]cc(-c5ccc6c(c5)OCCO6)c4c3)cc2)CC1"
12.1
